These data points were gathered from patent US8592432B2.

# Measured On: ALK (Homo sapiens (Human), UniProt Q9UM73)
# Sequence (Q9UM73 1116-1392): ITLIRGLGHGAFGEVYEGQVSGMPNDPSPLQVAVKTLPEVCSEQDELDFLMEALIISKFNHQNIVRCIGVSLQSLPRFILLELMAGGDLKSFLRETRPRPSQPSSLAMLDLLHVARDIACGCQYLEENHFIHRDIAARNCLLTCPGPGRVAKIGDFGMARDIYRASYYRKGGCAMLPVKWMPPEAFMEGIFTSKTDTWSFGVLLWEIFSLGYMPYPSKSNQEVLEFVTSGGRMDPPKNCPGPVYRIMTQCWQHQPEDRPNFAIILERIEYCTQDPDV
Quantity: pIC50
Please note pIC50 is a logarithmic value: minus log10 of concentration in mol/L. Answer with that number alone.

Answer with pIC50 of Cc1cc(Nc2nc(Nc3ccccc3S(=O)(=O)C(C)C)c3c(C)n[nH]c3n2)c(OC(C)C)cc1C1CCN(C)CC1 measured for ALK (Homo sapiens (Human), UniProt Q9UM73).
7.70
